src = ChEMBL document CHEMBL1667792

molecular target: Phosphatidylinositol 4,5-bisphosphate 3-kinase catalytic subunit alpha isoform (Homo sapiens, UniProt P42336); assay: Inhibition of PI3Kalpha after 80 mins
Sequence (P42336 whole entry, canonical isoform): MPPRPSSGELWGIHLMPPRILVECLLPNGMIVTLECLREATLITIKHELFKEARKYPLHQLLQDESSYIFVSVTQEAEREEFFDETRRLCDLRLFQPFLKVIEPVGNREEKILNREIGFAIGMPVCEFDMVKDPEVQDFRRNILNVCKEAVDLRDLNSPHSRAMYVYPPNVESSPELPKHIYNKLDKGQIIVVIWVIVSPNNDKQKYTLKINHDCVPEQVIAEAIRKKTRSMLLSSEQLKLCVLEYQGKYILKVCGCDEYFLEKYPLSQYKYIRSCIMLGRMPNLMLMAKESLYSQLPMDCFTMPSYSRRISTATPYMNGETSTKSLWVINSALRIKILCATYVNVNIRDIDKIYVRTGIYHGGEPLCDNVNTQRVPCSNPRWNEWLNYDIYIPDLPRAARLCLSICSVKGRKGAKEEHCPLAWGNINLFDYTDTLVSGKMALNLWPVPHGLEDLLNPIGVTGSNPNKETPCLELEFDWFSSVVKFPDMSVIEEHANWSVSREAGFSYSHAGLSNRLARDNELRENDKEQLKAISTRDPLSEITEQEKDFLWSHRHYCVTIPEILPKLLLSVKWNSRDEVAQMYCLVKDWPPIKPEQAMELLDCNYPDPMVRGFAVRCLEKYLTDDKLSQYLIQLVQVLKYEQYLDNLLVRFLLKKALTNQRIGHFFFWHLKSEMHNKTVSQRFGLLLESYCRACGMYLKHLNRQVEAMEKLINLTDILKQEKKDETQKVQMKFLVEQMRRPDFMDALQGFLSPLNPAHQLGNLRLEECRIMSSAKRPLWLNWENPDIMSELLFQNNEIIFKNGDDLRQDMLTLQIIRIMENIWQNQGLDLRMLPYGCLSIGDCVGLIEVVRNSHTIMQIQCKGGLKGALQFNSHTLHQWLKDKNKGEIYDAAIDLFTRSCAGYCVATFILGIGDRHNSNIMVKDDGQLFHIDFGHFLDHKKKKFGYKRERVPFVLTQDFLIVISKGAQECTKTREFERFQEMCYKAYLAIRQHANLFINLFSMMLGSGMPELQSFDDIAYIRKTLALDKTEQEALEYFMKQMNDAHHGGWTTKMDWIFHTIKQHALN
pIC50: −log10 of the molar value.
measurement name: pIC50

structure as smiles: O=C(CN1CCOCC1)Nc1ccc(-c2cccc3c(=O)cc(N4CCOCC4)oc23)cc1OCCC1CC1
measurement name: pIC50
readout value: 6.40
--
structure as smiles: O=C(CN1CCOCC1)Nc1ccc(-c2cccc3c(=O)cc(N4CCOCC4)oc23)cc1OCCN1CCCC1
measurement name: pIC50
readout value: 5.36
--
structure as smiles: O=C(CN1CCOCC1)Nc1ccc(-c2cccc3c(=O)cc(N4CCOCC4)oc23)cc1OCC1CC1
measurement name: pIC50
readout value: 7.15
--
structure as smiles: COCCOc1cc(-c2cccc3c(=O)cc(N4CCOCC4)oc23)ccc1NC(=O)CN1CCOCC1
measurement name: pIC50
readout value: 5.82
--
structure as smiles: C=CCOc1cc(-c2cccc3c(=O)cc(N4CCOCC4)oc23)ccc1NC(=O)CN1CCOCC1
measurement name: pIC50
readout value: 6.82
--
structure as smiles: CCOc1cc(-c2cccc3c(=O)cc(N4CCOCC4)oc23)ccc1NC(=O)CN1CCOCC1
measurement name: pIC50
readout value: 6.33
--
structure as smiles: CC(C)Oc1cc(-c2cccc3c(=O)cc(N4CCOCC4)oc23)ccc1NC(=O)CN1CCOCC1
measurement name: pIC50
readout value: 6.54
--
structure as smiles: O=C(CN1CCOCC1)Nc1ccc(-c2cccc3c(=O)cc(N4CCOCC4)oc23)cc1OCCO
measurement name: pIC50
readout value: 5.80

###

biological target: DNA-dependent protein kinase catalytic subunit (Homo sapiens, UniProt P78527)
Sequence (P78527 whole entry): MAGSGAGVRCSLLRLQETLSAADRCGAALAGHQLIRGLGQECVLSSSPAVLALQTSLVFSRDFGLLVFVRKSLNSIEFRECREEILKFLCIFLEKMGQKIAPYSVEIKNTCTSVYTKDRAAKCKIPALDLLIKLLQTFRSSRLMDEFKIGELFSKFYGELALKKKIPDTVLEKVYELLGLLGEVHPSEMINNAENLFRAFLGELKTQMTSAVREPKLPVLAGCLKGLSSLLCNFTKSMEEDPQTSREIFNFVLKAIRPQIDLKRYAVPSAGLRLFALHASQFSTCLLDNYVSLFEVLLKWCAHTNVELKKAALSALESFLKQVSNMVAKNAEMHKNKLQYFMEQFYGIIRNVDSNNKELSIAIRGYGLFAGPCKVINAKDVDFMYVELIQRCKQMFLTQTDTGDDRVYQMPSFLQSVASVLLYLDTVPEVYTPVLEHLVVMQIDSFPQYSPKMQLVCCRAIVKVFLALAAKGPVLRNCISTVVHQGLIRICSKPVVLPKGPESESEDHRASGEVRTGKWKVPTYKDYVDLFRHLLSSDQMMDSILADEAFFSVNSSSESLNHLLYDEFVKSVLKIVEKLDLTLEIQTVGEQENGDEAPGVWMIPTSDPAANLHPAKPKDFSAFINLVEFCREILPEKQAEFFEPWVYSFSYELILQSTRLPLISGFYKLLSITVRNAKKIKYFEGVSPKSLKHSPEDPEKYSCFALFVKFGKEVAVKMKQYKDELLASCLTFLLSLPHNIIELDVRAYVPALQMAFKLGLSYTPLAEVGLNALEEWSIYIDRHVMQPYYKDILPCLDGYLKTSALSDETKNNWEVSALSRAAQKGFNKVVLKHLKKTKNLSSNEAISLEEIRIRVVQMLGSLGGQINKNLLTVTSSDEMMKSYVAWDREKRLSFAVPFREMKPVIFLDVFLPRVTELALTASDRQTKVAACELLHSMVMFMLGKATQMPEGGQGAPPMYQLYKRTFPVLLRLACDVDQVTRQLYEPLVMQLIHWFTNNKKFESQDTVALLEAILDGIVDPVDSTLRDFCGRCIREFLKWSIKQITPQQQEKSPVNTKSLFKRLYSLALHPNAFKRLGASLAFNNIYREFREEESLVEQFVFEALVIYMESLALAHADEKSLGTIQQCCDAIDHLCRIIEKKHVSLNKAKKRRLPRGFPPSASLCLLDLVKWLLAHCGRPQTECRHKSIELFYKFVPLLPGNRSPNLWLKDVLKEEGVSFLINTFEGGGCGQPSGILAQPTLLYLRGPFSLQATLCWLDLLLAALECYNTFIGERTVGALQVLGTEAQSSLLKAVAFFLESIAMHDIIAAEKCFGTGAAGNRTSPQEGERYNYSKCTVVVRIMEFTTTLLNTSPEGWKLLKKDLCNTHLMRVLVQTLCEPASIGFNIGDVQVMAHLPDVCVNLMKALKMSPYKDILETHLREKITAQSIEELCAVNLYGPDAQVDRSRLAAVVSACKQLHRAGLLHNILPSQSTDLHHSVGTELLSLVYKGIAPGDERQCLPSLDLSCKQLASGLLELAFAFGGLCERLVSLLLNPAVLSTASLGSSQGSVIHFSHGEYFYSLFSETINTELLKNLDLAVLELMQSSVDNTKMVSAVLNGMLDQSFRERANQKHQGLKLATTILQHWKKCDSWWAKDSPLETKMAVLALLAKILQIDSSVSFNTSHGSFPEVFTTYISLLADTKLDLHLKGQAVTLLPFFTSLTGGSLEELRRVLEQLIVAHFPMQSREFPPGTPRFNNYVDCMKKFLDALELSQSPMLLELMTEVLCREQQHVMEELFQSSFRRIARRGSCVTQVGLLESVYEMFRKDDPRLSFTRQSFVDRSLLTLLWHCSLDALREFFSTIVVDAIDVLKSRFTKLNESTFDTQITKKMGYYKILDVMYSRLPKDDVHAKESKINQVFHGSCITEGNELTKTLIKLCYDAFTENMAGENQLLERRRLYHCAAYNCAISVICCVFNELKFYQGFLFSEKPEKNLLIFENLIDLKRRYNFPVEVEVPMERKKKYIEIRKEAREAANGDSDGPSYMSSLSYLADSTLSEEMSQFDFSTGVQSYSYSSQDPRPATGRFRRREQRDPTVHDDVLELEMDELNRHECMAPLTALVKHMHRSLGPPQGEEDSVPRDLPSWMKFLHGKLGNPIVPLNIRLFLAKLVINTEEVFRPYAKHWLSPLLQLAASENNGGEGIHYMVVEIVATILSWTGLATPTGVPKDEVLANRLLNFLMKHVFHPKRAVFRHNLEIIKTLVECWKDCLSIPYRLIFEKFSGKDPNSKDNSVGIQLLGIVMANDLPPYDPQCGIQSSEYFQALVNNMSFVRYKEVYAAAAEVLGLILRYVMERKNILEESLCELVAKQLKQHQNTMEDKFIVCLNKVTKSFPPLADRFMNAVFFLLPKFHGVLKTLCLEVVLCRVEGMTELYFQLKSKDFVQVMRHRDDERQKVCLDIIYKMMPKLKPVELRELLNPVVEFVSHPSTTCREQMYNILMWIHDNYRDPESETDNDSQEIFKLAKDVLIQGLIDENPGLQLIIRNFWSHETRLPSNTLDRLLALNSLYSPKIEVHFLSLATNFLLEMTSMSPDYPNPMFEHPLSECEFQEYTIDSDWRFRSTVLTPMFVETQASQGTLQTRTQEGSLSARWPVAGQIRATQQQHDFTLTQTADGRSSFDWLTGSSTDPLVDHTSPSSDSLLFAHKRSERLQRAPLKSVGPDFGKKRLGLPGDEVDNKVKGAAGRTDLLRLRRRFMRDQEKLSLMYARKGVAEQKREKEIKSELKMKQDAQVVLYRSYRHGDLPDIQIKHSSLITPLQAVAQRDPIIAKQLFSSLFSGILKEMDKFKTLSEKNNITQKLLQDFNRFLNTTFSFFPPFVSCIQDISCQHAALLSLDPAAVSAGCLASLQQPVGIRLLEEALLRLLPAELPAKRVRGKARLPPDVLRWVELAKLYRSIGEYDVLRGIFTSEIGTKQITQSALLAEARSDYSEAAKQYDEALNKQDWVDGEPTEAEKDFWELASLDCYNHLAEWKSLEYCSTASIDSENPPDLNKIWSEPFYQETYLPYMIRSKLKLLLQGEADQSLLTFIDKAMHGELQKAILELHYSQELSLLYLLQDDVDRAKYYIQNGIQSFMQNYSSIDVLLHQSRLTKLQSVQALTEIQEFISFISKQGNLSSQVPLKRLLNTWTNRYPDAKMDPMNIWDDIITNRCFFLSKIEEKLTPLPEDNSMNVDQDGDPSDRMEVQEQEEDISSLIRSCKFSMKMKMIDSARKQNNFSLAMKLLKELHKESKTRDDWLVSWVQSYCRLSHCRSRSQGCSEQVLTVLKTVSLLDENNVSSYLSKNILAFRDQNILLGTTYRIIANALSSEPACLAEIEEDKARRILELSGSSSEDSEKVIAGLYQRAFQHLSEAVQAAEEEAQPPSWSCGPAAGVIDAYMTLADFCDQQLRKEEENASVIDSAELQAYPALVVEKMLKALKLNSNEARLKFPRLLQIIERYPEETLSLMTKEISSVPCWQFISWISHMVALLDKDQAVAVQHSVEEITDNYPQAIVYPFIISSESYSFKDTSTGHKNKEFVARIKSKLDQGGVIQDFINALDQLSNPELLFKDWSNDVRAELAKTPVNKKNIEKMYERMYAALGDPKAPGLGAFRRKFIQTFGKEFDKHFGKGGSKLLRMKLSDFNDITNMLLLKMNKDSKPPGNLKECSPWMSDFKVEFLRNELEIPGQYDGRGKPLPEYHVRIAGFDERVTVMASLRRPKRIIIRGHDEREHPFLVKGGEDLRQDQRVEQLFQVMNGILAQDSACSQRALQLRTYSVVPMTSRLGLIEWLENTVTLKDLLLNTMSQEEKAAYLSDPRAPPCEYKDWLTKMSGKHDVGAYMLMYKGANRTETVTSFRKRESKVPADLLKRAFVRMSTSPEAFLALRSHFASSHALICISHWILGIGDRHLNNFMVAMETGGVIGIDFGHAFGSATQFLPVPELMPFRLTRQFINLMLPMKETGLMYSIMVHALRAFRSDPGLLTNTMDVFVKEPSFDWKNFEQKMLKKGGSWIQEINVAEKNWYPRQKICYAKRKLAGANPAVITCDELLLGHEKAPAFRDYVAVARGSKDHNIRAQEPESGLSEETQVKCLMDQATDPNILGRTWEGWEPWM
# IC50 per entry
measurement name: IC50 (nM)

structure as smiles: CCOc1cc(-c2cccc3c(=O)cc(N4CCOCC4)oc23)ccc1NC(=O)CN1CCOCC1
measurement name: IC50
readout value: 280
--
structure as smiles: CC(C)Oc1cc(-c2cccc3c(=O)cc(N4CCOCC4)oc23)ccc1NC(=O)CN1CCOCC1
measurement name: IC50
readout value: 330
--
structure as smiles: O=C(CN1CCOCC1)Nc1ccc(-c2cccc3c(=O)cc(N4CCOCC4)oc23)cc1-c1ccccc1
measurement name: IC50
readout value: 14
--
structure as smiles: O=C(CN1CCOCC1)Nc1ccc(-c2cccc3c(=O)cc(N4CCOCC4)oc23)cc1O
measurement name: IC50
readout value: 80
--
structure as smiles: O=C(CN1CCOCC1)Nc1ccc(-c2cccc3c(=O)cc(N4CCOCC4)oc23)cc1OCCC1CC1
measurement name: IC50
readout value: 500
--
structure as smiles: O=C(CN1CCOCC1)Nc1ccc(-c2cccc3c(=O)cc(N4CCOCC4)oc23)cc1OCC1CCC1
measurement name: IC50
readout value: 160
--
structure as smiles: COc1cc(-c2cccc3c(=O)cc(N4CCOCC4)oc23)ccc1NC(=O)CN1CCOCC1
measurement name: IC50
readout value: 290
--
structure as smiles: C=CCOc1cc(-c2cccc3c(=O)cc(N4CCOCC4)oc23)ccc1NC(=O)CN1CCOCC1
measurement name: IC50
readout value: 170
--
structure as smiles: CC1(COc2cc(-c3cccc4c(=O)cc(N5CCOCC5)oc34)ccc2NC(=O)CN2CCOCC2)CCC1
measurement name: IC50
readout value: 110
--
structure as smiles: COCCOc1cc(-c2cccc3c(=O)cc(N4CCOCC4)oc23)ccc1NC(=O)CN1CCOCC1
measurement name: IC50
readout value: 2600
